assay: Systemic pharmacokinetics and total colon tissue distribution after single oral administration; type: in vivo, mouse; settings: male, C57BL/6, mouse, plasma; mice, oral 5 mg/kg, 6 h, compound 1 measured; read-out: Mean plasma concentration
Structures can show the parent of a compound that is named as a salt.
Readout Type: concentration at 6 h

>>> df
                                   compound          readout_type     result
0  COc1cc(Nc2cc(Oc3ccc(NC(=O)Nc4cc(C(C)(C)C)cc(NS(C)(=O)=O)c4OC)c4ccccc34)ccn2)ccc1C(=O)O [1 (sodium salt)]  concentration at 6 h  1.9 ng/mL

Every entry's value here was drawn from patent US9499486B2.
